Would you mind telling me the reported Number of mice that died on each day after infection: day 8 of each entry?
System: Escherichia coli ATCC 25922
test summary: Oral formulations on mice with systemic bacterial infection
Assay type: in vivo, ICR mice
measurement setup: 1 mg/kg gavage, three times a day for 7 days, n = 10
Non-standard residues stand in square brackets, D forms with d. Residues, ends and D or L forms follow the SMILES beside them. dPhe(4-Cl) = N[C@H](Cc1ccc(Cl)cc1)C(=O)O; d2Nal = N[C@H](Cc1ccc2ccccc2c1)C(=O)O
A number alone suffices; assume Mouse.

Give Number of mice that died on each day after infection: day 8 for the following molecule: CC(=O)N[C@H](CCCNC(=N)N)C(=O)N[C@H](CCCCN)C(=O)N[C@H](CC(C)C)C(=O)N[C@H](CC(C)C)C(=O)N[C@H](Cc1ccc(Cl)cc1)C(=O)N[C@H](CCCCN)C(=O)N[C@H](CC(C)C)C(=O)N[C@H](CCCCN)C(=O)N[C@H](Cc1ccc(Cl)cc1)C(=O)N[C@H](CCCCN)C(=O)N[C@H](CCCNC(=N)N)C(N)=O [LV-7] (Ac-[dR][dK][dL][dL][dPhe(4-Cl)][dK][dL][dK][dPhe(4-Cl)][dK][dR]-NH2) 1

Give Number of mice that died on each day after infection: day 8 for the following molecule: CC(=O)N[C@H](CCCNC(=N)N)C(=O)N[C@H](CCCCN)C(=O)N[C@H](CC(C)C)C(=O)N[C@H](CC(C)C)C(=O)N[C@H](Cc1ccc2ccccc2c1)C(=O)N[C@H](CCCNC(=N)N)C(=O)N[C@H](CC(C)C)C(=O)N[C@H](CCCCN)C(=O)N[C@H](Cc1ccc2ccccc2c1)C(=O)N[C@H](CCCNC(=N)N)C(=O)N[C@H](CCCNC(=N)N)C(N)=O [LV-22] (Ac-[dR][dK][dL][dL][d2Nal][dR][dL][dK][d2Nal][dR][dR]-NH2) 2
